Entry source: patent US10308617B2

Readings of EC50 for the listed compounds
# ASSAY_SYSTEM: UniProtKB O60260
# Sequence (O60260 1-465): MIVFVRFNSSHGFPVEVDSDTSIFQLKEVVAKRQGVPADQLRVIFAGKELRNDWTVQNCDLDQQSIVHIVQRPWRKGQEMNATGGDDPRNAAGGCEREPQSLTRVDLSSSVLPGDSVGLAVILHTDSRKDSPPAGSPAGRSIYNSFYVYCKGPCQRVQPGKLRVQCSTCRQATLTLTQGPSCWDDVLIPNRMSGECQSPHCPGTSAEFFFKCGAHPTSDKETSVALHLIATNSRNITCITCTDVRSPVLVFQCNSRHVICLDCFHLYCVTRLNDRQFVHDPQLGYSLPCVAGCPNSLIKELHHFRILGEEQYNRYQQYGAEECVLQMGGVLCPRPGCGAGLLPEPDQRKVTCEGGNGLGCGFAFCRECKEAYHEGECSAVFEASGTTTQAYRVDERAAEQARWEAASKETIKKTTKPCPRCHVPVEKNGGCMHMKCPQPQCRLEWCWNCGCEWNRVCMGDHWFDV
# PROTOCOL_SUMMARY: Activity-Based Probe Assay using an Ubiquitin vinyl sulfone probe (TR-FRET)
# Assay type: biochemical
# STUDY_CONDITIONS: Parkin activation, HA-Ub-VS probe, heat activated Parkin; read-out: Probe Assay EC50 (μM) [Example 2]

Example entries and their recorded answers appear below.
CN(C(=O)c1ccccc1)c1nc(N(C)C(=O)c2ccccc2)n(-c2ccccc2)n1 [J]; > 100 µM
Nc1nc(Nc2nc(NC(=O)c3ccccc3)nn2-c2ccccc2)c2ccccc2n1 [Compound J1]; > 100 µM

Enter measured EC50, system UniProtKB O60260, for the compound shown: Nc1nc(Nc2nc(NC(=O)c3ccccc3)nn2-c2ccccc2)nc2ccccc12 [Compound N1]
> 100 µM
